Measured relative viability accompanies every entry in the list below.
# Tested on: NCI-H1651
# EXPERIMENT SUMMARY: relative viability (nuclei count vs DMSO), 5 days (fraction); higher = more cells survive
# CONDITION NOTES: first compound 0.4 µM

- MOLECULE: "Clc1ccc(Nc2nnc(Cc3ccncc3)c3ccccc23)cc1 [Vatalanib] + O=C(CCCCCCC(=O)Nc1ccccc1)NO [Vorinostat] (partner 1 µM)"
  relative viability: 0.594
- MOLECULE: "COc1cc(N2CCC(C(N)=O)CC2)ccc1Nc1nc(N)c(Cl)c(Nc2ccccc2S(=O)(=O)C(C)C)n1 [HG-5-88-01] + Cc1nc(NC(=O)N2CCC[C@H]2C(N)=O)sc1-c1ccnc(C(C)(C)C(F)(F)F)c1 [Alpelisib] (partner 2 µM)"
  relative viability: 0.962
- MOLECULE: "COc1cc(N2CCC(C(N)=O)CC2)ccc1Nc1nc(N)c(Cl)c(Nc2ccccc2S(=O)(=O)C(C)C)n1 [HG-5-88-01] + Nc1ncn([C@H]2C[C@H](O)[C@@H](CO)O2)c(=O)n1 [Decitabine] (partner 2 µM)"
  relative viability: 0.717
- MOLECULE: "C[C@@H]1CN(CC(=O)Nc2ccc3c(c2)Cc2cccc(-c4cc(=O)cc(N5CCOCC5)o4)c2S3)C[C@H](C)O1 + O=C(c1cc(Cc2n[nH]c(=O)c3ccccc23)ccc1F)N1CCN(C(=O)C2CC2)CC1 [Olaparib] (partner 8 µM)"
  relative viability: 0.178
- MOLECULE: "Clc1ccc(Nc2nnc(Cc3ccncc3)c3ccccc23)cc1 [Vatalanib] + CC(=O)c1c(C)c2cnc(Nc3ccc(N4CCNCC4)cn3)nc2n(C2CCCC2)c1=O [Palbociclib] (partner 0.5 µM)"
  relative viability: 0.479
- MOLECULE: "Clc1ccc(Nc2nnc(Cc3ccncc3)c3ccccc23)cc1 [Vatalanib] + Nc1nc2[nH]cc(CCc3ccc(C(=O)N[C@@H](CCC(=O)O)C(=O)O)cc3)c2c(=O)[nH]1 [Pemetrexed] (partner 0.2 µM)"
  relative viability: 0.496

Attribution: the supplement of paper PMC10307832
